- System: PPARg:RXRa IVT, anti-PPARg (NR concentration 270 nM, RXRa partner concentration 90 nM)
- test_description: PBM binding z-score (relative to random genomic background probes); higher = stronger binding; sequences stand for … in GC…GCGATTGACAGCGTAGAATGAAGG
Label Fulfilled when PBM binding z-score is at or above 3; anything below gets Not fulfilled.

Answered cases to consult:
GATACAGGGTCAGCCAGAGGCCAGAGTATGGAAA : Not fulfilled
TCATATAGGTAATACAGGTGAAGGTCGGCATCTA : Fulfilled
GGAACGAGGGCAAGTTGATAGCAGAGTTTGATGG : Not fulfilled
TCTGCTAGGTCAATGATGGTCAGCTAATCTGCTA : Fulfilled

**Query** Has `CCGAGTGGGTTATGGGGCATTCAGGCAACGGTGA` a recorded PBM binding z-score greater than or equal to 3?
**Result** Not fulfilled
